# test_system: UBE2J1
# protocol_notes: reporter assay of Huesken 2005
# condition_description: siRNA
Oligonucleotides are written 5' to 3', each unit as a sugar letter and its base; * is a phosphorothioate linkage, no mark a phosphodiester; rarer units and linkages stand in square brackets, end groups in braces. Plain capitals give the bases only. d = 2'-deoxy (DNA); r = 2'-OH (RNA)
Catalogue of normalised inhibition (eCFP-eYFP dual reporter) values
quantity: normalised inhibition (eCFP-eYFP dual reporter)

[[record]]
substance = "sense rUrArArCrGrGrCrUrArArUrGrGrUrCrGrArUrUdTdT / antisense rArArUrCrGrArCrCrArUrUrArGrCrCrGrUrUrAdGdG"
reported = "84%"

[[record]]
substance = "sense rUrArUrCrUrGrGrCrArArArCrGrArArUrArCrAdTdT / antisense rUrGrUrArUrUrCrGrUrUrUrGrCrCrArGrArUrAdTdA"
reported = "91.6%"

[[record]]
substance = "sense rUrUrUrArUrCrArCrGrGrGrCrGrGrArUrArGrUdTdT / antisense rArCrUrArUrCrCrGrCrCrCrGrUrGrArUrArArAdCdT"
reported = "51.8%"

[[record]]
substance = "sense rUrGrGrCrArArArCrGrArArUrArCrArUrArUrUdTdT / antisense rArArUrArUrGrUrArUrUrCrGrUrUrUrGrCrCrAdGdA"
reported = "110%"

[[record]]
substance = "sense rArUrGrGrUrCrGrArUrUrUrGrArArGrUrGrGrGdTdT / antisense rCrCrCrArCrUrUrCrArArArUrCrGrArCrCrArUdTdA"
reported = "56.3%"

[[record]]
substance = "sense rUrGrCrCrArArCrArArArArGrGrArGrArGrGrGdTdT / antisense rCrCrCrUrCrUrCrCrUrUrUrUrGrUrUrGrGrCrAdTdA"
reported = "28.7%"

[[record]]
substance = "sense rArGrGrArArArGrArArGrArGrCrArCrUrUrGrCdTdT / antisense rGrCrArArGrUrGrCrUrCrUrUrCrUrUrUrCrCrUdCdA"
reported = "70.7%"


----------
Catalogue of normalised inhibition (eCFP-eYFP dual reporter) values
# test_system: UBE2C
# protocol_notes: reporter assay of Huesken 2005
# condition_description: siRNA
Oligonucleotides are written 5' to 3', each unit as a sugar letter and its base; * is a phosphorothioate linkage, no mark a phosphodiester; rarer units and linkages stand in square brackets, end groups in braces. Plain capitals give the bases only. d = 2'-deoxy (DNA); r = 2'-OH (RNA)
quantity: normalised inhibition (eCFP-eYFP dual reporter) (%)

[[record]]
substance = "sense rArUrGrCrUrGrCrCrGrArGrCrUrCrUrGrGrArAdTdT / antisense rUrUrCrCrArGrArGrCrUrCrGrGrCrArGrCrArUdGdT"
units_of_measure = "%"
reported = 84.5

[[record]]
substance = "sense rGrArGrCrArGrCrUrGrGrArArCrArGrUrArUrAdTdT / antisense rUrArUrArCrUrGrUrUrCrCrArGrCrUrGrCrUrCdCdA"
units_of_measure = "%"
reported = 85.2

[[record]]
substance = "sense rArGrArGrUrUrCrCrCrCrArGrUrGrGrCrUrArCdTdT / antisense rGrUrArGrCrCrArCrUrGrGrGrGrArArCrUrCrUdAdG"
units_of_measure = "%"
reported = 87

[[record]]
substance = "sense rArArGrArCrCrUrGrArGrGrUrArUrArArGrCrUdTdT / antisense rArGrCrUrUrArUrArCrCrUrCrArGrGrUrCrUrUdCdA"
units_of_measure = "%"
reported = 46.4

[[record]]
substance = "sense rArCrArUrArUrGrCrCrUrGrGrArCrArUrCrCrUdTdT / antisense rArGrGrArUrGrUrCrCrArGrGrCrArUrArUrGrUdTdA"
units_of_measure = "%"
reported = 75.7

[[record]]
substance = "sense rGrGrUrArUrArArGrCrUrCrUrCrGrCrUrArGrAdTdT / antisense rUrCrUrArGrCrGrArGrArGrCrUrUrArUrArCrCdTdC"
units_of_measure = "%"
reported = 91.3

[[record]]
substance = "sense rCrCrUrGrGrArCrArUrCrCrUrGrArArGrGrArAdTdT / antisense rUrUrCrCrUrUrCrArGrGrArUrGrUrCrCrArGrGdCdA"
units_of_measure = "%"
reported = 74.2

[[record]]
substance = "sense rCrCrArUrCrCrArUrGrGrArGrCrArGrCrUrGrGdTdT / antisense rCrCrArGrCrUrGrCrUrCrCrArUrGrGrArUrGrGdTdC"
units_of_measure = "%"
reported = 80.7

[[record]]
substance = "sense rCrArGrGrArCrCrArUrUrCrUrGrCrUrCrUrCrCdTdT / antisense rGrGrArGrArGrCrArGrArArUrGrGrUrCrCrUrGdAdC"
units_of_measure = "%"
reported = 45.4

[[record]]
substance = "sense rArCrCrCrUrUrArCrArArUrGrCrGrCrCrCrArCdTdT / antisense rGrUrGrGrGrCrGrCrArUrUrGrUrArArGrGrGrUdAdG"
units_of_measure = "%"
reported = 47.4

[[record]]
substance = "sense rGrCrCrCrArCrArGrUrGrArArGrUrUrCrCrUrCdTdT / antisense rGrArGrGrArArCrUrUrCrArCrUrGrUrGrGrGrCdGdC"
units_of_measure = "%"
reported = 46.7

[[record]]
substance = "sense rArGrArCrCrUrGrArGrGrUrArUrArArGrCrUrCdTdT / antisense rGrArGrCrUrUrArUrArCrCrUrCrArGrGrUrCrUdTdC"
units_of_measure = "%"
reported = 71.7


----------
# test_system: CDC34
# protocol_notes: reporter assay of Huesken 2005
# condition_description: siRNA
Oligonucleotides are given in HELM: sugar(base)linkage, 5' to 3'; d 2'-deoxyribose, r ribose, m 2'-O-methylribose, p phosphate. ss, as = sense and antisense strand
So basically: normalised inhibition (eCFP-eYFP dual reporter) at 80% or higher? That is yes. Lower than 80%? That is no.

[[record]]
substance = "RNA1{r(G)p.r(A)p.r(U)p.r(G)p.r(U)p.r(A)p.r(C)p.r(A)p.r(G)p.r(G)p.r(A)p.r(A)p.r(G)p.r(U)p.r(G)p.r(G)p.r(A)p.r(A)p.r(A)p.d(T)p.d(T)}|RNA2{r(U)p.r(U)p.r(U)p.r(C)p.r(C)p.r(A)p.r(C)p.r(U)p.r(U)p.r(C)p.r(C)p.r(U)p.r(G)p.r(U)p.r(A)p.r(C)p.r(A)p.r(U)p.r(C)p.d(A)p.d(C)}$$$RNA1{StrandType:ss}|RNA2{StrandType:as}$"
group_label = "yes"

[[record]]
substance = "RNA1{r(C)p.r(A)p.r(C)p.r(U)p.r(G)p.r(G)p.r(U)p.r(G)p.r(G)p.r(A)p.r(C)p.r(G)p.r(A)p.r(G)p.r(G)p.r(G)p.r(C)p.r(G)p.r(A)p.d(T)p.d(T)}|RNA2{r(U)p.r(C)p.r(G)p.r(C)p.r(C)p.r(C)p.r(U)p.r(C)p.r(G)p.r(U)p.r(C)p.r(C)p.r(A)p.r(C)p.r(C)p.r(A)p.r(G)p.r(U)p.r(G)p.d(T)p.d(C)}$$$RNA1{StrandType:ss}|RNA2{StrandType:as}$"
group_label = "no"

[[record]]
substance = "RNA1{r(G)p.r(G)p.r(A)p.r(A)p.r(G)p.r(G)p.r(A)p.r(U)p.r(C)p.r(G)p.r(G)p.r(G)p.r(A)p.r(G)p.r(U)p.r(A)p.r(C)p.r(A)p.r(C)p.d(T)p.d(T)}|RNA2{r(G)p.r(U)p.r(G)p.r(U)p.r(A)p.r(C)p.r(U)p.r(C)p.r(C)p.r(C)p.r(G)p.r(A)p.r(U)p.r(C)p.r(C)p.r(U)p.r(U)p.r(C)p.r(C)p.d(C)p.d(C)}$$$RNA1{StrandType:ss}|RNA2{StrandType:as}$"
group_label = "no"

[[record]]
substance = "RNA1{r(G)p.r(G)p.r(A)p.r(G)p.r(U)p.r(A)p.r(C)p.r(A)p.r(C)p.r(A)p.r(G)p.r(A)p.r(C)p.r(A)p.r(U)p.r(C)p.r(A)p.r(U)p.r(C)p.d(T)p.d(T)}|RNA2{r(G)p.r(A)p.r(U)p.r(G)p.r(A)p.r(U)p.r(G)p.r(U)p.r(C)p.r(U)p.r(G)p.r(U)p.r(G)p.r(U)p.r(A)p.r(C)p.r(U)p.r(C)p.r(C)p.d(C)p.d(G)}$$$RNA1{StrandType:ss}|RNA2{StrandType:as}$"
group_label = "no"

[[record]]
substance = "RNA1{r(C)p.r(C)p.r(U)p.r(G)p.r(A)p.r(G)p.r(U)p.r(G)p.r(U)p.r(G)p.r(A)p.r(U)p.r(C)p.r(U)p.r(C)p.r(C)p.r(C)p.r(U)p.r(C)p.d(T)p.d(T)}|RNA2{r(G)p.r(A)p.r(G)p.r(G)p.r(G)p.r(A)p.r(G)p.r(A)p.r(U)p.r(C)p.r(A)p.r(C)p.r(A)p.r(C)p.r(U)p.r(C)p.r(A)p.r(G)p.r(G)p.d(A)p.d(G)}$$$RNA1{StrandType:ss}|RNA2{StrandType:as}$"
group_label = "no"

